# targetDesc: T1, RHPN1, Q8TCX5
# T1 sequence (Q8TCX5 508-602, limits assumed, looked up): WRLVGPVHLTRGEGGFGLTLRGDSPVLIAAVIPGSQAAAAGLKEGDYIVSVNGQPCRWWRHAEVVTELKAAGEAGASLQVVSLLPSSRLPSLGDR
# protocolSummary: holdup assay
# Design: key: below the threshold = too weak to quantify, mostly under pKd 3.1 to 4
# appliedConditions: plain residues with an end cap or a label only (N-terminal biotin on a linker: ado-ado)
reportedProperty: pKd

binder: PKSNSSKEYV [CLDN7, O95471]
result: below the threshold
//
binder: TFSRRPKTRV [CD226, Q15762]
result: below the threshold
//
binder: EFKQTSSFLV [JAM1, Q9Y624]
result: below the threshold

Source listed as paper PMC9482650.
